- measuredTarget: Cyclin-dependent kinase 2 (Homo sapiens);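 note: mean inhibition of CDK2 in complex with cyclin E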
- experimentalParameters: at 0.1 µM
Label N if inhibition falls below 4%; label Y in every other case.

IN: Check if inhibition >= 4% (inclusive). Item: `CCS(=O)(=O)c1ccc(OC)c(Nc2ncc(-c3cccc(C(C)=O)c3)o2)c1`
OUT: N

IN: Given the entry `CS(=O)(=O)CCNCc1ccoc1-c1ccc2ncnc(Nc3ccc(OCc4ccccc4)cc3)c2c1` , answer whether its inhibition meets or surpasses 4%.
OUT: N

IN: Decide: is the reported value of inhibition for `COc1c(C(N)=O)cc(-c2ccc(Cl)cc2)cc1-c1ccc(S(N)(=O)=O)cc1` equal to or greater than 4%?
OUT: N

IN: Say whether `O=C1Nc2ccccc2/C1=C1\CCc2cc(O)ccc21` shows inhibition of 4% or more.
OUT: Y

* * *

- measuredTarget: Non-receptor tyrosine-protein kinase TYK2 (Homo sapiens) (UniProt P29597);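 note: each value is a mean of the inhibition readings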
- Sequence (P29597 whole entry): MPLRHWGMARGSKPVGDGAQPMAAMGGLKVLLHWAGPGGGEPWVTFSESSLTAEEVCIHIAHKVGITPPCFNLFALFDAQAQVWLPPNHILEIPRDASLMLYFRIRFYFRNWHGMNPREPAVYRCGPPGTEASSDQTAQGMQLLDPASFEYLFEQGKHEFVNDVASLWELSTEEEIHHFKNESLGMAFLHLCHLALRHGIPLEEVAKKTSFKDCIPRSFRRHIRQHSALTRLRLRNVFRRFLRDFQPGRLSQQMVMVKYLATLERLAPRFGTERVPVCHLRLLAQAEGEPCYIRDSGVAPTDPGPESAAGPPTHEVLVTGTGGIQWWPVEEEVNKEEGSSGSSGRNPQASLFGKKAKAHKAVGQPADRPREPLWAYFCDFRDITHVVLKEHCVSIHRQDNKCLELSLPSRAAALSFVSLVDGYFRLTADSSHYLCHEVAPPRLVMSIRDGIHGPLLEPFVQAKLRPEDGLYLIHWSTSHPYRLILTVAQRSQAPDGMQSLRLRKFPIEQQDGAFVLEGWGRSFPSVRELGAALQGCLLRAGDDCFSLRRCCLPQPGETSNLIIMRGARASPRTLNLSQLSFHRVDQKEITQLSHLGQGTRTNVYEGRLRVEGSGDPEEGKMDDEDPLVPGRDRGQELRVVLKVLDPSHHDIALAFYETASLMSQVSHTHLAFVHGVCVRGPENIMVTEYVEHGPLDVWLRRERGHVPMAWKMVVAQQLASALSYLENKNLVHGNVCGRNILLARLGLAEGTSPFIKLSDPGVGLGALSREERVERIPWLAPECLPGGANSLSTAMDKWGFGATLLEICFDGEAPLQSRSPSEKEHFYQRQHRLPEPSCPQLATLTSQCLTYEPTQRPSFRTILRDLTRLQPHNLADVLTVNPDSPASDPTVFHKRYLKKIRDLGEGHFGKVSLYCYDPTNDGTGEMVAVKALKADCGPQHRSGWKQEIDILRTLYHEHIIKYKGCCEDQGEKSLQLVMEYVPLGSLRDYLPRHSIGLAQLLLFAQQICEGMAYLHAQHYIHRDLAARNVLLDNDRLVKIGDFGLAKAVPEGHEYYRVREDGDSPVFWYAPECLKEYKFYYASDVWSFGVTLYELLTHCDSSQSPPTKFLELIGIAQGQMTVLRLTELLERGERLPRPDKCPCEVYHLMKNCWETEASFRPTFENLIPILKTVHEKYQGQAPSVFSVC
- experimentalParameters: at 0.1 µM
valueType: inhibition

IN: Look at this molecule and give its reported inhibition. `COc1cc(N2CCN(C(C)C)CC2)ccc1Nc1nc(Nc2cccc3ncccc23)c2cc[nH]c2n1`
OUT: -4.59%

IN: Look at this molecule and give its reported inhibition. `CN1CCC(n2cnc(-c3ccc(F)cc3)c2-c2ccnc(NCCO)n2)CC1`
OUT: -3.21%

IN: Reported inhibition for `Cc1c2ccc(N(C)c3ccnc(Nc4cccc(S(N)(=O)=O)c4)n3)cc2nn1C` : what is it?
OUT: -3.68%

IN: Name the reported inhibition value associated with the molecule `Cc1ccc(-c2cc3c(NC(=O)C4CC4)ncnc3o2)cc1`
OUT: -1.91%

IN: I would be grateful if you could share the reported inhibition for `CNC(=O)c1sc(-n2cnc3cc(OC)c(OC)cc32)cc1OCc1ccccc1C(F)(F)F` .
OUT: -2.35%

IN: # get_value(readout='inhibition', item= `COc1ccc(-c2nn3ncccc3c2-c2ccnc(Nc3ccc(F)c(F)c3)n2)cc1` )
OUT: -2.09%

IN: // lookup inhibition for `COc1cc2c(cc1Nc1nc(Nc3cccc(F)c3C(N)=O)c3cc[nH]c3n1)N(C(=O)CN1CCN(C(C)C)CC1)CC2`
OUT: 0.12%

IN: Name the recorded inhibition for `CS(=O)(=O)Nc1ccc(-c2ccc3c(NC(=O)C4CC4)n[nH]c3c2)cc1` .
OUT: -0.89%

IN: # query: inhibition of entry `CS(=O)(=O)Nc1ccc(-c2cc(-c3ccccc3)cc(C(N)=O)c2N)cc1`
OUT: -1.8%

* * *

- measuredTarget: Ephrin type-B receptor 3 (Homo sapiens) (UniProt P54753);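 note: reported value is the mean percent inhibition of EPHB3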
- Sequence (P54753 whole entry): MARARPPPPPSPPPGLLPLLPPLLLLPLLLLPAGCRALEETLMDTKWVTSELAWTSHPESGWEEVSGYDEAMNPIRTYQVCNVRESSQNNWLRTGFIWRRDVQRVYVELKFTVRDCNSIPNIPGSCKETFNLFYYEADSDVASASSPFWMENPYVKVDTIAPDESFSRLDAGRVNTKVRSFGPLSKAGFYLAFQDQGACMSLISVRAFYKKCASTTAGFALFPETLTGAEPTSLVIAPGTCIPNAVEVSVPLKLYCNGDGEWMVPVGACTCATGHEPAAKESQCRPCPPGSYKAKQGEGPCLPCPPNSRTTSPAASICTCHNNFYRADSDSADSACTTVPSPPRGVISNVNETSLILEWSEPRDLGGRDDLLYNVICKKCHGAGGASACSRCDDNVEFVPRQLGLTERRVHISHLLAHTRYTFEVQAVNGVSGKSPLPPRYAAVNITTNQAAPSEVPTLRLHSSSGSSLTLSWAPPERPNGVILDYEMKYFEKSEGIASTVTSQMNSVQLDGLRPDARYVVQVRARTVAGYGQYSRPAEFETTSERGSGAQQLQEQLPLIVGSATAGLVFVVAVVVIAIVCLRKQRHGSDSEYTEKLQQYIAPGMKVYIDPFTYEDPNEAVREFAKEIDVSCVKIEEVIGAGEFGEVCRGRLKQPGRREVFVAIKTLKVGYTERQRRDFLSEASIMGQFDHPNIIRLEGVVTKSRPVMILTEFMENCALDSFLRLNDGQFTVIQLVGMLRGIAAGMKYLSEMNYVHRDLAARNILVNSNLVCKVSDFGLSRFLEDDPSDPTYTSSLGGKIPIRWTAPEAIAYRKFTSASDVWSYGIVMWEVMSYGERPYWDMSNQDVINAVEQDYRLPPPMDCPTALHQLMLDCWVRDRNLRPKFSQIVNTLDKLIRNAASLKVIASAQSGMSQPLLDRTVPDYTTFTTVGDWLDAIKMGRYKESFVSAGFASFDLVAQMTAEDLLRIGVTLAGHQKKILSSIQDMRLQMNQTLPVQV
- experimentalParameters: at 0.1 µM
Would you mind classing the entries by inhibition? Ranges: label 0 (below 4%), label 1 (4% to below 5%), label 2 (5% or more)

IN: Which bin should I file `O=C(O[C@H]1CN[C@H](C#Cc2cc3ncnc(Nc4ccc(OCc5cccc(F)c5)c(Cl)c4)c3s2)C1)N1CCOCC1` under?
OUT: label 2

IN: Lab log: `CCn1c(-c2nonc2N)nc2cncc(C(=O)NCCNC)c21` — assign inhibition category
OUT: label 0

IN: Form field 'band' for `N#Cc1ccc2c(-c3ccnc(NC4CC4)n3)c(-c3ccc(F)cc3)nn2c1`
OUT: label 2

IN: Quick check: band for CC1=C(C(=O)Nc2ccc3[nH]nc(C)c3c2)C(c2ccc(C(F)(F)F)cc2)CC(=O)N1 (stereo not given)
OUT: label 2

IN: For `COc1ccc(-c2nn3ncccc3c2-c2ccnc(Nc3ccc(F)c(F)c3)n2)cc1` , which inhibition bin applies?
OUT: label 1

IN: Class (by measured inhibition) for `c1cnn2ncc(-c3ccnc(NCCCN4CCOCC4)n3)c2c1`
OUT: label 2

IN: Class for `CCN1CCC(C(=O)Nc2n[nH]c3nnc(-c4cccc(F)c4F)cc23)CC1` ?
OUT: label 0

IN: Form field 'band' for `COc1ccc(Nc2ncc(-c3ccccc3)o2)cc1OC`
OUT: label 0

IN: Could you tell me which band `Fc1ccc(Nc2nccc(-c3c(-c4ccc(C(F)(F)F)cc4)nn4ncccc34)n2)cc1F` belongs to?
OUT: label 1

* * *

- measuredTarget: Protein-tyrosine kinase 2-beta (Homo sapiens);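 note: reported as mean percent inhibition of PYK2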
- experimentalParameters: at 0.1 µM
Kindly state inhibition for each of the entries shown.
Give the value, in units of %, as a plain number.

IN: I have this compound here, `NS(=O)(=O)c1cccc(N/C=C2\C(=O)Nc3ccccc32)c1` , and I need its recorded inhibition.
OUT: 14.1

IN: Need inhibition, item `COc1cc(N2CCN(C(C)C)CC2)ccc1Nc1nc(Nc2cccc(F)c2C(=O)O)c2cc[nH]c2n1`
OUT: 90.6

IN: Given `O=C1Nc2ccccc2/C1=C1\CCc2cc(O)ccc21` , state its recorded inhibition.
OUT: 18.3

IN: Which measured inhibition value corresponds to `Fc1cccc(COc2ccc(Nc3ncncc3C#Cc3ccccc3)cc2Cl)c1` ?
OUT: 13.9

IN: # query: inhibition of entry `COc1c(C(N)=O)cc(-c2ccc(Cl)cc2)cc1-c1ccc(S(N)(=O)=O)cc1`
OUT: 5.92

IN: # lookup: inhibition of `Cc1ccc(-c2cc3c(NC(=O)C4CC4)ncnc3o2)cc1`
OUT: 9.96

IN: Param item = `CNC(=O)c1cncc(/C=C/c2ccccc2C)c1` ; retrieve measured inhibition.
OUT: 5.28

IN: I have this compound here, `Cc1c2ccc(N(C)c3ccnc(Nc4cccc(S(N)(=O)=O)c4)n3)cc2nn1C` , and I need its recorded inhibition.
OUT: 10.9

IN: Can you share its inhibition? I mean this compound: `Cc1cc(O)cc(C)c1/C=C/c1cncc(C(=O)OC(C)(C)C)c1`
OUT: 13.2

IN: What value of inhibition has been reported for the following compound? `O=C(O[C@H]1CN[C@H](C#Cc2cc3ncnc(Nc4ccc5c(cnn5Cc5ccccc5)c4)c3s2)C1)N1CCOCC1`
OUT: 1.18

* * *

- measuredTarget: Tyrosine-protein kinase receptor UFO (Homo sapiens);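 note: values are mean percent inhibition of AXL from the GSK PKIS screen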
- experimentalParameters: at 0.1 µM
Provide the reported inhibition of each item.

IN: State the recorded inhibition for this entry: `COC(=O)Nc1nc2ccc(Oc3ccc(NC(=O)Nc4cc(C(F)(F)F)ccc4F)cc3)cc2s1`
OUT: 13.7%

IN: Quick one: inhibition of `COc1ccc2ncn(-c3cc(O[C@H](C)c4ccccc4C(F)(F)F)c(C(N)=O)s3)c2c1` ?
OUT: 0.07%

IN: What value of inhibition has been reported for the following molecule? `O=C(Nc1n[nH]c2nnc(-c3cccnc3)cc12)C1CC1`
OUT: 0.08%

IN: Fill in the blank: the reported inhibition of `N#Cc1ccc2c(-c3ccnc(NC4CC4)n3)c(-c3ccc(F)cc3)nn2c1` is ____.
OUT: -4.43%

IN: // inhibition lookup, key: CC1=C(C(=O)Nc2ccc3[nH]ncc3c2)C(c2ccc(F)cc2)N=C(c2ccc(C(F)(F)F)nc2)N1 (centres undefined)
OUT: -1.91%

IN: Query (molecule): `CS(=O)(=O)CCNCc1ccc(-c2ccc3ncnc(Nc4ccc(OCc5cccc(C(F)(F)F)c5)cc4)c3c2)o1` ; field requested: inhibition
OUT: -6.74%

IN: Tell me the measured inhibition of `COc1cccc(Nc2nccc(-c3cnn4ncccc34)n2)c1` , please.
OUT: -0.07%

IN: Find the recorded inhibition belonging to `CS(=O)(=O)CCNCc1ccc(-c2ccc3ncnc(Nc4ccc(OCc5ccccc5)cc4)c3c2)o1` and report it.
OUT: -3.92%

IN: Query: inhibition; subject: `CCCNc1cccc(-n2ncc3c(N/N=C/c4ccncc4)ncnc32)c1`
OUT: 2.01%

* * *

- measuredTarget: Dual specificity tyrosine-phosphorylation-regulated kinase 1A (Homo sapiens)
- experimentalParameters: at 0.1 µM
- Description: GSK_PKIS: DYRK1A mean inhibition at 0.1 uM [Nanosyn]
valueType: inhibition (%)
Value expressed in %; do not type the unit.

IN: GET /values?readout=inhibition&item= `O=C(O[C@H]1CN[C@H](C#Cc2cc3ncnc(Nc4ccc(OCc5cccc(F)c5)c(Cl)c4)c3s2)C1)N1CCOCC1`
OUT: 2.71

IN: For the molecule shown here, `Fc1ccc(Nc2nccc(-c3c(-c4ccc(C(F)(F)F)cc4)nn4ncccc34)n2)cc1F` , give the reported inhibition.
OUT: 2.73

IN: Item `COc1cccc(-n2ncc3c(N/N=C/c4ccc(C(=O)NCCN(C)C)cc4)ncnc32)c1` has what recorded inhibition?
OUT: 38.1

IN: // lookup inhibition for `CS(=O)(=O)CCNCc1ccc(-c2ccc3ncnc(Nc4ccc(OCc5ccccc5)cc4)c3c2)o1`
OUT: 1.93

IN: Which inhibition value is on record for `COc1cc(N2CCN(C(C)C)CC2)ccc1Nc1nc(Nc2cccc(F)c2C(=O)O)c2cc[nH]c2n1` ?
OUT: 5.55

* * *

- measuredTarget: Serine/threonine-protein kinase 3 (Homo sapiens) (UniProt Q13188);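 note: each value is the mean inhibition of MST2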
- Sequence (Q13188 whole entry): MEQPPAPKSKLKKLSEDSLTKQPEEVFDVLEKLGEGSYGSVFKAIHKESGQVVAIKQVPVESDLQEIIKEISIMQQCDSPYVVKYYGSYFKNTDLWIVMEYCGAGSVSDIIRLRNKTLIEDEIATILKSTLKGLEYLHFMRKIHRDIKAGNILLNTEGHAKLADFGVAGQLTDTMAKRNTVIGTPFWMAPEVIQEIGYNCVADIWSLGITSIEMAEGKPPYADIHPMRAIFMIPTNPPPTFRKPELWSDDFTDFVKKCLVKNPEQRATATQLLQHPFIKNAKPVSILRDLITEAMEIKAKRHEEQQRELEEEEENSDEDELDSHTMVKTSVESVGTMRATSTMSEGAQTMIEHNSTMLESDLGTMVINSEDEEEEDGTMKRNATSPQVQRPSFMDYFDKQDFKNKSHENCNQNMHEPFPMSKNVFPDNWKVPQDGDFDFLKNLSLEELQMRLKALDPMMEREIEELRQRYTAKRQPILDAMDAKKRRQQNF
- experimentalParameters: at 1 µM
valueType: inhibition (%)
Respond numerically; units are % and should not be typed.

IN: Consider the compound shown here: `Fc1cccc(COc2ccc(Nc3ncncc3C#Cc3ccccc3)cc2Cl)c1` What is its recorded inhibition?
OUT: 8.97

IN: Name the reported inhibition value associated with the compound `CCCNc1cccc(-n2ncc3c(N/N=C/c4ccncc4)ncnc32)c1`
OUT: 9.89

IN: Consider the compound shown here: `COc1ccc(-c2nn3ncccc3c2-c2ccnc(Nc3ccc(F)c(F)c3)n2)cc1` What is its recorded inhibition?
OUT: 10.2

IN: Consider the compound shown here: `FC(F)(F)CNc1nccc(-c2cnn3ncccc23)n1` What is its recorded inhibition?
OUT: 6.67

IN: inhibition for `Cn1c(-c2nonc2N)nc2cnccc21` ?
OUT: 5.05

IN: Which inhibition reading was recorded for the compound `CC(C)c1ccc(-c2cc(-c3c[nH]nc3-c3ccccn3)ccn2)cc1` ?
OUT: 0.64

Every entry's value here was drawn from ChEMBL document CHEMBL1961873.
